Examples of molecules with documented EC50 follow.
Molecular target: Peroxisome proliferator-activated receptor gamma/Nuclear receptor coactivator 3 (Homo sapiens)
Sequence (P37231 whole entry): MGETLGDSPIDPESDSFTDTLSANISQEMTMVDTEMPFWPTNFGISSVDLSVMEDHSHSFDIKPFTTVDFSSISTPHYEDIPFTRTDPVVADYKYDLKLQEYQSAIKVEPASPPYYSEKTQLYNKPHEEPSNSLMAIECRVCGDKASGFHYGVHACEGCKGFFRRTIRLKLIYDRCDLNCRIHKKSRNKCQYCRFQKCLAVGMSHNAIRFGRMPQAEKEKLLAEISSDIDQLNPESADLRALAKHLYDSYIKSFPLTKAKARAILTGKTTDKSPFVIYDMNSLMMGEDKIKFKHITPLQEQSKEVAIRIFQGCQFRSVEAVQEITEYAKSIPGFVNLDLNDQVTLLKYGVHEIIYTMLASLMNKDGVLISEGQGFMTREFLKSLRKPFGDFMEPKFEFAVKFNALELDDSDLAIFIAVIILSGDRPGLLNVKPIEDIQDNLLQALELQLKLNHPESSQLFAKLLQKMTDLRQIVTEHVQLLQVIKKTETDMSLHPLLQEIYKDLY
Sequence (Q9Y6Q9 whole entry, further chain): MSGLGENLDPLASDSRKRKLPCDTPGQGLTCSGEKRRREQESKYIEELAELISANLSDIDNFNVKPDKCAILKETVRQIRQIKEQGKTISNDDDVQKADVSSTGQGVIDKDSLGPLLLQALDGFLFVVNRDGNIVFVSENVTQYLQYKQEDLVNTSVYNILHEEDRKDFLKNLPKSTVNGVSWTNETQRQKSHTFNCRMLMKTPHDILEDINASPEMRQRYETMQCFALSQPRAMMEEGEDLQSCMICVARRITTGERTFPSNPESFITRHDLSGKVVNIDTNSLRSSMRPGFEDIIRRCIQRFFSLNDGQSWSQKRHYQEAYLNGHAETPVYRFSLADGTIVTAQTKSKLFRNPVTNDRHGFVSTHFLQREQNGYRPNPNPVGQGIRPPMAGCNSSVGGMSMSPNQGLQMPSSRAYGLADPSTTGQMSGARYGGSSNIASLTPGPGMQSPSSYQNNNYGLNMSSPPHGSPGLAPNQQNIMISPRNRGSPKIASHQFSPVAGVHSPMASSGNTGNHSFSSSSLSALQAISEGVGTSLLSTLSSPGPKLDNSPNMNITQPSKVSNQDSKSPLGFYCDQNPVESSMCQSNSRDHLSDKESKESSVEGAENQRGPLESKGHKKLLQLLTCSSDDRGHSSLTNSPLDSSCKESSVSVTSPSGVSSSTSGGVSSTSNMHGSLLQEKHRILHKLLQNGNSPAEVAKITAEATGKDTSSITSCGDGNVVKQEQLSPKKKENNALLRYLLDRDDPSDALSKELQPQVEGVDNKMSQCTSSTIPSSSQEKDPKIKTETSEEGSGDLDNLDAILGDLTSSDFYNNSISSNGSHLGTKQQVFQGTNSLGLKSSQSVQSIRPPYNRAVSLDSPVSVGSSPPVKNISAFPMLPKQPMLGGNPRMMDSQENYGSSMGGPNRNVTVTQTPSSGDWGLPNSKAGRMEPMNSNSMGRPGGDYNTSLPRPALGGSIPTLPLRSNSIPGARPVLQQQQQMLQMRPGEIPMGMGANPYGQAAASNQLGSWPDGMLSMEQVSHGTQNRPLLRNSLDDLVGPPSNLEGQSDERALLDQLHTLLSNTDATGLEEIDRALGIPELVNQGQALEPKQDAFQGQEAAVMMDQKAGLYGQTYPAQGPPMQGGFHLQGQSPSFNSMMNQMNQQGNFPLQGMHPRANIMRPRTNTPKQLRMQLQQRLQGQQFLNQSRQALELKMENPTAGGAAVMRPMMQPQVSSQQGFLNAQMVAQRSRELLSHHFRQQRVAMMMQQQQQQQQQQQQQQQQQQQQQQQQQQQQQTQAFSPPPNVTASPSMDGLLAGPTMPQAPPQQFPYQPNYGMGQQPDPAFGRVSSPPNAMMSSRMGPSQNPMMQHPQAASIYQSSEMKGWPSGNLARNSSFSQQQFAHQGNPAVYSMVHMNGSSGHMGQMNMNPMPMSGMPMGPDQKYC
Experiment: TR-FRET dose response biochemical High Throughput Screening assay for agonists of the steroid receptor coactivator 3 (SRC-3) recruitment by the peroxisome proliferator-activated receptor gamma (PPAR gamma): non-selective agonists. [Related pubchem assays: 1301 (Confirmation screen.), 1048 (Primary screen.)]
Assay type: functional

Previously resolved entries follow.
{"columns": ["molecule", "measured-parameter", "recorded-result"],
 "data": [
  ["N#Cc1c(-c2ccccc2)cc(C2CC2)nc1SCC(=O)c1cccs1", "EC50", "20.6 µM (not active)"],
  ["Cn1c(S)nnc1-c1sc2cc(C(F)(F)F)cnc2c1-c1cccs1", "EC50", "34 µM (not active)"],
  ["Cn1c(=O)cc(SCC(=O)NCCCN2CCN(c3ccccc3F)CC2)c2ccccc21", "EC50", "> 79.4 µM (not active)"],
  ["CN(CCCNC(=O)CSc1cc(=O)n(C)c2ccc(Cl)cc12)Cc1ccccc1", "EC50", "> 79.4 µM (not active)"]
]}

Pending molecule:
Consider the molecule C=CCn1c(NC(C)c2cc(Cl)ccc2O)nc2ccccc21 (stereo not given) and give its recorded EC50.
13.3 µM (not active)

###

Test system: Vero
Assay: cells
Assay type: functional
Conditions: Chlorocebus sabaeus
The source made the active and inactive calls.
Parameter CC50: see the listing below.

Known CC50 results, listed for orientation:
{"columns": ["compound", "measured-parameter", "recorded-result"],
 "data": [
  ["N#Cc1c(NCCN)nc(-c2ccccc2)c2c1CCCC2", "CC50", "16.4 µM (active)"],
  ["c1ccc(Nc2nc(Nc3ccccc3)nc(N3CCNCC3)n2)cc1", "CC50", "22.6 µM (active)"],
  ["O=C(Nc1nc(-c2ccccn2)cs1)C1COc2ccccc2O1 (centres undefined)", "CC50", "10 µM (active)"]
]}

For the compound COc1cc2ccnc(C=O)c2cc1OC , report CC50.
> 25 µM (active)

###

Biological target: RNA-binding protein pos-1 (Caenorhabditis elegans)
Sequence (G5EF15 whole entry, the tested form may be a part): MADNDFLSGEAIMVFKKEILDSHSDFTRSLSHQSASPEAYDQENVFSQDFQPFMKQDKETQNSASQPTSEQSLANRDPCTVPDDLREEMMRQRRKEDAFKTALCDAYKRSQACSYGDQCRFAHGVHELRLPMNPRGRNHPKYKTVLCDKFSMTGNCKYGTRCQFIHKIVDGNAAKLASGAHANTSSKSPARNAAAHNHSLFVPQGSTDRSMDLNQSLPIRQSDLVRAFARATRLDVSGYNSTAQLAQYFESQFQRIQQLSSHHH
Assay: disruptors of C. elegans POS-1 RNA interaction – biochemical, fluorescence polarization, dose response (AID 1964);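 also: purified POS-1 fused to maltose binding protein made in E. coli; potency of compounds blocking POS-1 binding to fluorescent RNA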
Activity calls are given as the source filed them.
measured-parameter: EC50

{"columns": ["molecule", "EC50"],
 "data": [
  ["COc1ccc(CCC(=O)Nc2cccc(Cl)c2)cc1", "> 300 µM (not active)"]
]}

Supply reported EC50 belonging to this molecule: O=C(N/N=C\C1C(=O)NC(=S)N(c2ccccc2)C1=O)c1ccc(O)cc1 (configuration not stated)
> 300 µM (not active)

Annotate the molecule COc1cccc(C2C(C#N)=C(N)OC3=C2C(=O)CC(c2ccco2)C3)c1OCc1ccc(F)cc1 (configuration not stated) with its measured EC50.
> 300 µM (not active)

Let me know recorded EC50 for CCNC(=O)c1cc2c(=O)n3cccc(C)c3nc2n(Cc2ccc(C)cc2)c1=N , thanks.
> 300 µM (not active)

Check the records and state EC50 for Fc1ccc(CNc2nc(-c3ccccc3)nc3ccccc23)cc1
> 300 µM (not active)

Quickly give me recorded EC50 for CCN1C(=O)/C(=C\N(C)C)NC1=S
22.6 µM (active)

###

Test: HIV-1 AD8 envelope cell-cell fusion blockers – cherry-pick, dose response (AID 652062);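 also: luciferase signal from cell-cell fusion driven by HIV-1 clade B AD8 Env; potency is for inhibitors of fusion seen as a drop in luminescence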
Type: functional, cell-based
Active and inactive are the calls of the source.
In this section we review reported AC50 values for a set of molecules.

Example results:
{"columns": ["smiles-repr", "AC50"],
 "data": [
  ["CN(C[C@@H](CC1CCCCC1)N(C[C@H](Cc1ccccc1)N(CCc1ccccc1)N=O)N=O)N=O", "42.9 µM (active)"],
  ["CCC(NCc1ccc(F)cc1)=C1C(=O)N(C)C(=O)N(C)C1=O", "12.2 µM (active)"],
  ["C[C@H]1CN([C@@H](C)CO)C(=O)Cc2cc(NC(=O)Cc3cn(C)c4ccccc34)ccc2O[C@H]1CN(C)S(=O)(=O)c1ccccc1", "23.5 µM (active)"]
]}

From here, focus on the item given below.
State its AC50: COc1ccc(NC(=O)Nc2ccc3c(c2)C(=O)N([C@H](C)CO)C[C@H](C)[C@H](CN(C)S(=O)(=O)c2ccc(C)cc2)O3)cc1
11.2 µM (active)

###

Target: Nonstructural protein 1 (Influenza A virus, UniProt Q194T2)
Assay type: functional, Influenza A virus (A/California/07/2009(H1N1))
The source made the active and inactive calls.
Property: IC50; scope: individual compounds

Solved cases below.
{"columns": ["compound", "target-of-assay", "recorded-result"],
 "data": [
  ["C(=N\\Nc1nc2ccccc2[nH]1)/c1cccc2cccnc12", "Nonstructural protein 1 (Influenza A virus, UniProt Q194T2)", "13.4 µM (active)"],
  ["O=C1c2ccccc2C(=O)c2c1cccc2N1CCCC1", "Nonstructural protein 1 (Influenza A virus, UniProt Q194T2)", "7.3 µM (active)"],
  ["CCOC(=O)c1cnc(-n2[nH]c(C)c(Cc3ccccc3)c2=O)[nH]c1=O", "Nonstructural protein 1 (Influenza A virus, UniProt Q194T2)", "3.4 µM (active)"],
  ["CCOc1cccc(=NC2CCCCC2)c2c(C)[nH]c(C)c12", "Nonstructural protein 1 (Influenza A virus, UniProt Q194T2)", "68.8 µM (active)"]
]}

Give a short answer stating reported IC50 for Cc1c(NN=C2C(=O)NC(=S)NC2=O)c(=O)n(-c2ccccc2)n1C .
2.77 µM (active)

Name the recorded IC50 of the compound listed here: O=C(N/N=C\C1C(=O)NC(=S)N(c2ccccc2)C1=O)c1ccc(O)cc1 (stereo unspecified)
9.86 µM (active)

Output measured IC50 for this item: O=C(Nc1nc(-c2ccccn2)cs1)C1COc2ccccc2O1 (stereo unspecified)
10.7 µM (active)

###

Here, each record is paired with measured EC50 data.
Assay: NIH3T3 cell viability loss – ATP luminescence, mouse fibroblasts, counter-screen, dose response (AID 2010);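 also: cells exposed to compound for about 90 hours before reading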
Assay type: functional, cell-based
The source made the active and inactive calls.

Assign EC50 to the following record: Nc1ccccc1Nc1cc(-c2cccc(Cl)c2)nn1-c1ccccc1
> 60 µM (inconclusive)

Tell me EC50 reported for Cc1ccc2c(C)nc(N=C(N)NS(=O)(=O)c3ccc([N+](=O)[O-])cc3)nc2c1
> 60 µM (not active)

Supply reported EC50 belonging to this molecule: O=C(CC(C(=O)N1CCc2ccccc21)n1ccnc1)N1CCc2ccccc2C1 (centres undefined)
11.5 µM (active)

Look up and report measured EC50 for this entry: Clc1ccc(-c2c[n+](Cc3cccc(Cl)c3)c3n2CCC3)cc1
> 60 µM (not active)

Give the value of EC50 reported for the following: COc1ccc(-c2cc(C3CCN(Cc4cccc(C(F)(F)F)c4)CC3)[nH]n2)cc1
> 60 µM (not active)

Please give the documented EC50 of CS(=O)(=O)N(CC(=O)Nc1c(F)cccc1F)c1ccc(C23CC4CC(CC(C4)C2)C3)cc1
10.6 µM (active)

Identify measured EC50 corresponding to Cc1cc(C)cc(OCC(O)CN2CCC(CN3C(=O)c4cccc5cccc(c45)C3=O)CC2)c1 (centres undefined)
9.92 µM (active)

Return reported EC50. Input molecule: COc1ccc(N2CCc3c(C)nc4c(OC)cc(OC)cc4c32)cc1
36.5 µM (active)

Read off the recorded EC50 for C=CCc1cc(Cl)ccc1OCCN(C)C
> 30 µM (not active)

###

Target: Dual specificity tyrosine-phosphorylation-regulated kinase 1A (Rattus norvegicus)
Type: biochemical, Homo sapiens
Calls of active or inactive are those of the source.
Parameter: AC50. Scope: all listed entries.

{"columns": ["compound", "target-of-assay", "recorded-result"],
 "data": [
  ["C[N+](C)(CCOc1ccccc1)Cc1ccccc1.O=C([O-])c1cc2ccccc2c(Br)c1O", "Dual specificity tyrosine-phosphorylation-regulated kinase 1A (Rattus norvegicus)", "0.517 µM (active)"],
  ["CCc1nc(/C=C2\\C(=O)Nc3ccccc32)c[nH]1", "Dual specificity tyrosine-phosphorylation-regulated kinase 1A (Rattus norvegicus)", "10.5 µM (active)"],
  ["O=C1C=C(Nc2ccccc2C(=O)O)c2ccccc2C1=O", "Dual specificity tyrosine-phosphorylation-regulated kinase 1A (Rattus norvegicus)", "6.25 µM (active)"],
  ["CC(=O)Nc1cccc(NC(=O)c2cc3ccccc3o2)c1", "Dual specificity tyrosine-phosphorylation-regulated kinase 1A (Rattus norvegicus)", "11.5 µM (active)"]
]}

Output AC50 of COC(=O)C1=C(C(=O)OC)C(c2cc(Br)ccc2O)c2sc(O)nc2S1 (stereo not given)
24.6 µM (active)

###

Experiment: viability of uninfected HEp-2 cells – cell-based, HTS, cytotoxicity control for RSV inhibitor project, dose response (AID 2410)
Assay type: functional
Settings: human respiratory syncytial virus
Calls of active or inactive are those of the source.
Below, each entry is listed with its recorded CC50.

{"columns": ["compound", "CC50"],
 "data": [
  ["COc1cc(NC(=S)NC(=O)c2ccc(C(C)(C)C)cc2)ccc1NC(=O)c1cccs1", "18.9 µM (active)"]
]}

Complete the entry with CC50 for NC(=O)C1=C[C@@H](c2csc3ccccc23)C[C@@H](OCc2ccc(CO)cc2)O1
15.5 µM (active)

Answer with the recorded CC50 for the compound listed here: COC(=O)c1cc(NC(=O)CC2S/C(=N/c3ccccc3)N(CCc3c[nH]c4ccccc34)C2=O)cc(C(=O)OC)c1 (stereo not given)
> 50 µM (active)

Answer with the recorded CC50 for the compound listed here: COc1ccccc1N1CCN(Cc2nc(N)nc(Nc3ccc(C)c(Cl)c3)n2)CC1
19.6 µM (active)

Please supply the value of reported CC50 for the item C=CCNc1nc(Nc2ccc(-c3nc4ccccc4o3)cc2)nc(N2CCOCC2)n1
27.3 µM (active)
